Reported BODY WEIGHTS values for the following substances.
- TEST PROTOCOL: Hair growth test: body weight
- Type: in vivo
- CONDITION PARAMETERS: 20 ug/head/day, skin, Day 1
Positions of bridges follow the written chain, without caps; N, C: chain ends. No end group written: not given here.
ASSAY METRIC: BODY WEIGHTS (g)

NH2—RPTRGDCDL—COOH (H-RPTRGDCDL-OH; listed as Homo sapiens) [HU027]
21.71
NH2—RPTRGDCDLPEFCPG—COOH (H-RPTRGDCDLPEFCPG-OH; cysteine pairing not given here; listed as Homo sapiens) [HU025]
21.20
HU024 (RPTRGDCDLPEFCPG; disulfide 7-13; listed as Homo sapiens)
21.34
HU026 (TRGDCDLPEFCP; disulfide 5-11; listed as Homo sapiens)
21.20
